Where do the numbers come from? From paper PMC4027183.

Biological target: T1, TIA-1 RRM2,3 (Homo sapiens, UniProt P31483-2 93-274)
T1 sequence: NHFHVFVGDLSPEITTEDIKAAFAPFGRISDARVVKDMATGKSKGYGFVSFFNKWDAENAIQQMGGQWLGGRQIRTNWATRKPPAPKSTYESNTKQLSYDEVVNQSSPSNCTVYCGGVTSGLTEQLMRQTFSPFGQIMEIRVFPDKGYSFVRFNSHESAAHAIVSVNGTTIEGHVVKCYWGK
Assay: ITC
RECORDED_METRIC: pKd
# pKd: negative log10 of molar concentration; output just the value

Q: Consider the binder shown here: UUUUUUUUU (ssRNA) [U9] What is its recorded pKd?
Result: 8.25
